Target: PSG (PSD-95), PDZ3-SH3-GK supramodule, wild type
Ends that are not written are not given here. * marks the point of attachment. Dansyl = CN(C)c1cccc2c(S(=O)(=O)*)cccc12
Exercise: state measured pKd for each of the binders provided.
Give bare numbers, as −log10 of the molar value.

INSERT INTO measurements (binder, quantitative_readout) VALUES
  ('Dansyl-RDGCHRLPKIKETTV [15 AA FRPD4, dansylated (DNS-RDGCHRLPKIKETTV)]', 6.12),
  ('Dansyl-GKKVLDTKNYKQTSV [15 AA CRIPT, dansylated (DNS-GKKVLDTKNYKQTSV)]', 6.31);

Below is a list of binders. For each, state its recorded pKd.
1. Dansyl-AQRGSFPPWVQQTRV [15 AA SynGap (DNS-AQRGSFPPWVQQTRV)]
2. Dansyl-KTESKKHGRWKLWFL [15 AA INSY2, dansylated (DNS-KTESKKHGRWKLWFL)]

Result:
1: 6.26; 2: 3.79
